meta.source: patent US20240325562A1

- experimental.target: T1, recombinant hPDGFRB ectodomain (human, UniProt P09619 33-532)
- T1 chain: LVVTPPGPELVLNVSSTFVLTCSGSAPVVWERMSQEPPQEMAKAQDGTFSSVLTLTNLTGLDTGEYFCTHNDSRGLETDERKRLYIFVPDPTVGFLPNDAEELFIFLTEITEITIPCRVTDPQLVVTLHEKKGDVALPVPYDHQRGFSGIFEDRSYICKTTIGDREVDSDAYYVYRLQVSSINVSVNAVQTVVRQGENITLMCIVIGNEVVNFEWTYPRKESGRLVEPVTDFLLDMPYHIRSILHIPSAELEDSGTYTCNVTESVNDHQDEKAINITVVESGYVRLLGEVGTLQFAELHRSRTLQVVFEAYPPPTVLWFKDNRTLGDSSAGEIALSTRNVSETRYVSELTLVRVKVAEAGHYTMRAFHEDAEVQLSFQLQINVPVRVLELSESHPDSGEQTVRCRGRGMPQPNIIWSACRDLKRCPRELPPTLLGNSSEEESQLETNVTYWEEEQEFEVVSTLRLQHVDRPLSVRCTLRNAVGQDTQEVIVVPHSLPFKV
- test: binding to immobilized ectodomain
pKd: −log10 of the molar value.
property: pKd

binder: SP14P (VHH) VHH: EVQLVESGGGLVQAGDSLRLSCVVSGLTFSRYGMGWFRQATGKEREFVGGISVGSSGTMYPNSVKGRFTISRDNAKSTVYLQMNSLKPEDTAVYFCAAIDQGSFVQQRDYRYWGQGTQVTVSS
result.number: 8.07
//
binder: SP05P (VHH) VHH: EVQLVESGGGLVQAGGSLRLSCAASGRTSFSGYAMAWFRQAPGKERDFVASITWSYGYTYYTDSAQGRFTISRDSAKNTVYLEMNSLKPEDTAVYYCAADPKASRFRILREYAYWGQGTQVTVSS
result.number: 8.04
